Assay: Pharmacokinetic test, intragastric administration to Beagle dogs, plasma LC-MS/MS
Assay type: in vivo
Details: both sexes, dog, plasma, po, suspension in 0.5% CMC-Na, citrate crystal 5.52 mg/kg, compound of Formula I 4 mg/kg (equimolar as base)
Examples of molecules with documented Cmax follow.
observable: Cmax (ng/mL)

smilescode=COc1cc(N2CCNC[C@@H]2C)ncc1-c1cnc(N)c(O[C@H](C)c2c(Cl)ccc(F)c2Cl)c1 measuredvalue=50
smilescode=COc1cc(N2CCNC[C@@H]2C)ncc1-c1cnc(N)c(O[C@H](C)c2c(Cl)ccc(F)c2Cl)c1.O=C(O)CC(O)(CC(=O)O)C(=O)O measuredvalue=63
